Target: UniProt:P08842
Sequence (P08842 whole entry): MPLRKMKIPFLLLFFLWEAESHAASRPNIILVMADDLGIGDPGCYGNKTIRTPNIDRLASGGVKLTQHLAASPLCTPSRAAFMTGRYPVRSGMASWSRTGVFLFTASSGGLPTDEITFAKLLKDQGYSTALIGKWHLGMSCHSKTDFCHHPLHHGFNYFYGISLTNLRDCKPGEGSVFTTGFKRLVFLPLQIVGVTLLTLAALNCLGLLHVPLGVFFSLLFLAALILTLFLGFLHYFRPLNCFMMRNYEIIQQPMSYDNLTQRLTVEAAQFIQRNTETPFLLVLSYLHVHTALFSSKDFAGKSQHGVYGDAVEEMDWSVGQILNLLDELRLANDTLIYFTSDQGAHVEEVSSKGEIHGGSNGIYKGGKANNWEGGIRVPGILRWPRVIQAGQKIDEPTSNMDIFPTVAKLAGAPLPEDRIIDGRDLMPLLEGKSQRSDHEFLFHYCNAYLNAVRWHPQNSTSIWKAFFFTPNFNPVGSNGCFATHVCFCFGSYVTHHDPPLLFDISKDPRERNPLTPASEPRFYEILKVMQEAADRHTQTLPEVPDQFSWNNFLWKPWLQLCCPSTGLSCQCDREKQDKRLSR
Assay: Competitive inhibitory activity against steroid sulfatase (STS)
In this section we review reported Ki values for a set of compounds.
Readout Type: Ki (µM)

| Compound | Display Unit | Result |
| --- | --- | --- |
| C[C@]12CC[C@@H]3c4ccc(C(F)(F)S(=O)(=O)O)cc4CCC3[C@@H]1CCC2=O (single isomer, unassigned) | µM | 57 |
| C[C@]12CC[C@@H]3c4ccc(C(F)(F)C5N=NN=N5)cc4CC[C@H]3[C@@H]1CCC2=O | µM | 16 |

###

This section presents compounds with their documented Ki values.
Target: Steryl-sulfatase (Homo sapiens, UniProt P08842)
Sequence (P08842 whole entry): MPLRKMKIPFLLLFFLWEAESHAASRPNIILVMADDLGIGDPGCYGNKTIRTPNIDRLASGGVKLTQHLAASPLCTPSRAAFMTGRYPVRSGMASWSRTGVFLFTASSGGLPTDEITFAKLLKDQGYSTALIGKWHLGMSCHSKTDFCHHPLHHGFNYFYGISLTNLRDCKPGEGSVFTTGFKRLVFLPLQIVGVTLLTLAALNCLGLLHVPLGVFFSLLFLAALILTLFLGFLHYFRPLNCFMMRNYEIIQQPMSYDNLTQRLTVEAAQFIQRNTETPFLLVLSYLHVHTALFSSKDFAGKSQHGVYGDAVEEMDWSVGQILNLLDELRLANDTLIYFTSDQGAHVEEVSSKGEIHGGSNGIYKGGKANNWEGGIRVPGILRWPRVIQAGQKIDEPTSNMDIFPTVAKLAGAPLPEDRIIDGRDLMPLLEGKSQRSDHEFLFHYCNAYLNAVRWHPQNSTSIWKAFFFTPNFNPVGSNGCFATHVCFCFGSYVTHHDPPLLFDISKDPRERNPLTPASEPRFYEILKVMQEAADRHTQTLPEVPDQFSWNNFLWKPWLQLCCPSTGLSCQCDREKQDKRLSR
Experiment: Inhibitory activity against steroid sulfatase (STS)

| Compound | Ki / µM |
| --- | --- |
| C[C@]12CC[C@@H]3c4ccc(CS(=O)(=O)O)cc4CC[C@H]3[C@@H]1CC/C2=C\O | 140 |
| C[C@]12CC[C@@H]3c4ccc(C(F)(F)S(=O)(=O)O)cc4CC[C@H]3[C@@H]1CC/C2=C\O | 37 |
| C[C@]12CC[C@@H]3c4ccc(CS(=O)(=O)O)cc4CCC3[C@@H]1CCC2=O (single isomer, unassigned) | 140 |
| C[C@]12CC[C@@H]3c4ccc(Cc5nnn[nH]5)cc4CCC3[C@@H]1CCC2=O (single isomer, unassigned) | 72.7 |
